Biological target: Neu5Ac(a2-3)[GalNAc(b1-4)]Gal(b1-4)Glc
Assay: glycan array binding signal (z-score within array); higher = stronger binding
Conditions: glycan notation: IUPAC condensed, linker removed
The full list was thinned out, with the strongest signals kept by preference.
measurement_name: glycan array binding signal (z-score)
# answer = number (no unit)

### Prompt Report glycan array binding signal (z-score) for Epa9 (Candida glabrata), CAGL0A01386g (protein) MGSSHHHHHHSSGLVPRGSHMDITPFAHYPRPEGCSSPPNAVSVGLHMDLYNYPYLYVKNPRTGFTNDTDSDADGETDGDSAGGIEGRAGQCWNPEYQDPNFPRYGYKKYGSFGSSDHVNGKISWDHNEFKEGCKPIMARLPTAYNYPAKITFSNFTMVLSGYFKPKSTGLYKFEIHADDFILFNFGSKNAFECCNREESIDNFGPYVAYAMWPNEADQELEVYLFEDSYYPIRLFYNNRDYHSKFMVGFYPPNTEEITYDFDGYLYMLDDTGNECKDSIRYKTVCDD
### Response -0.447

### Prompt Report glycan array binding signal (z-score) for MIC4-A5 (Toxoplasma gondii), Q9XZH7 (protein) SPDFHDEVECVHTGNIGSKAQTIGEVKRASSLSECRARCQAEKECSHYTYNVKSGLCYPKRGKPQFYKYLGDMTGSRTCDTS
### Response -0.311

More entries:
### Prompt Report glycan array binding signal (z-score) for F17aG (Escherichia coli), Q99003 (protein) MTNFYKVFLAVFILVCCNISQAAVSFIGSTENDVGPSLGSYSRTHAMDNLPFVYDTRNKIGYQNANVWHISKGFCVGLDGKVDLPVVGSLDGQSIYGLTEEVGLLIWMGDTKYSRGTAMSGNSWENVFSGWCVGANTASTQGLSVRVTPVILKRNSSARYSVQKTSIGSIRMRPYNGSSAGSVQTTVNFSLNPFTLNDTVTSCRLLTPSAVNVSLAAISAGQLPSSGDEVVAGTTSLKLQCDAGVTVWATLTDATTPSNRSDILTLTGASTATGVGLRIYKNTDSTPLKFGPDSPVKGNENQWQLSTGTETSPSVRLYVKYVNTGEGINPGTVNGISTFTFSYQ
### Response 0.025

// provenance: the supplement of paper PMC8728848
